- Target: T1, full length human TPO-R (human, UniProt P40238 26-635)
- T1 sequence (looked up): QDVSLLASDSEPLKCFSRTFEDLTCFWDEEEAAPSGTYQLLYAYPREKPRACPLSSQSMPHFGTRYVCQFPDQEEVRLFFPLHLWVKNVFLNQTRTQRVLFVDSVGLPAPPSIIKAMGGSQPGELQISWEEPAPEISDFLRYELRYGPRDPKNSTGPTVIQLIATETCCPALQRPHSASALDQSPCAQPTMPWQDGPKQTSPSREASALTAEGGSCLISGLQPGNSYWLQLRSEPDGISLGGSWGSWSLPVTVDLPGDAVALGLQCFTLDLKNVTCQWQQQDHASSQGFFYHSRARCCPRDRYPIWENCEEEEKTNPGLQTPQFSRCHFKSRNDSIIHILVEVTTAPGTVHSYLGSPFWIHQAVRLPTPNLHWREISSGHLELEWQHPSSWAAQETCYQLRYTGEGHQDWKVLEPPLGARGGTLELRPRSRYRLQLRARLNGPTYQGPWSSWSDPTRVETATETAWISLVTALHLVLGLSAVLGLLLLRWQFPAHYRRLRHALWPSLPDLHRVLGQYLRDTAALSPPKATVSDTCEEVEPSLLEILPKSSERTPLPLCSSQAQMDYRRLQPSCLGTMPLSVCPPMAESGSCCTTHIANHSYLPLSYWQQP
- Method Notes: cell-based or functional assay
Where no end group is shown, it is not given here.
Quick list: EC50 cell proliferation per entry.

Use these answered entries as a reference point.
Binder	EC50 cell proliferation
EADGPTLREWISFK (also: further groups not given here) [[drawing CHEM-US-00015] (SEQ ID NO:182)]	≤ 200 µM
ADGPTLREWISFE (also: further groups not given here) [[drawing CHEM-US-00018] (SEQ ID NO:183)]	~200 µM
ADGPTLREWISFC (also: further groups not given here) [[drawing CHEM-US-00016] (SEQ ID NO:173)]	≤ 0.5 µM
ADGPTLREWISFC (also: further groups not given here, structure printed only as a drawing) [[drawing CHEM-US-00004] (SEQ ID NO:173)]	≤ 0.5 µM
ADGPTLREWISFC (not fully specified; also: further groups not given here) [[drawing CHEM-US-00013] (SEQ ID NO:173)]	≤ 0.5 µM

Q) Requested field: EC50 cell proliferation. Item: ADGPTLREWISFC (also: further groups not given here) [[drawing CHEM-US-00017] (SEQ ID NO:173)]
A) ≤ 0.5 µM

Q) Now try ADGPTLREWISFC (not fully specified; also: further groups not given here) [[drawing CHEM-US-00006] (SEQ ID NO:173)] .
A) ≤ 200 µM

Q) Now try KADGPTLREWISFE (also: further groups not given here) [[drawing CHEM-US-00014] (SEQ ID NO:181)] .
A) ≤ 200 µM
